B1: FBF1 (parent)
chain: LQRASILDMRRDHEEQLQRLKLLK

# Variants of: B1
# test.name: protein stability index of a GFP-peptide fusion (GPS, HEK-293T) (PSI 1-6); higher = more stable;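 further: lentivirally expressed fusions sorted by FACS into six bins by GFP to DsRed ratio, PSI derived from sequencing read proportions per bin multiplied by bin number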
# condition.info: c terminus: a fixed tail appended
Listed below: protein stability index values for each entry.
readout.type: protein stability index

# variant.designation, obs.value
records = [
    ("K21E", 4.02),
    ("L23C", 4.09),
    ("H13A", 3.89),
    ("L20T", 4.09),
    ("L17H", 4),
    ("R3N", 3.93),
    ("M9K", 3.9),
    ("Q16G", 4.09),
    ("R3P", 4.02),
    ("L23P", 3.89),
    ("L17N", 3.91),
]
